# test_description: NCI Yeast Anticancer Drug Screen. Data for the rad50 strain (AID 155);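 also: 0% = growth of vehicle-only cultures of the same strain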
# recorded_conditions: S. cerevisiae rad50 strain growth inhibition; at 50.0 µM (retest, dose inferred, filed as 5.0); active compounds read high
Compounds without any hit were thinned out: in the full panel of roughly 79,000, 15% have a hit.
Rule: growth inhibition of 90% or more gives satisfied; anything lower gives not satisfied.

As a guide, the following entries are already answered.
compound	label
C=C[C@H]1CN2CC[C@H]1C[C@@H]2[C@@H](O)c1ccnc2ccccc12	not satisfied
Cn1cnc(C(=N)[Se])c1N	satisfied
Nc1nc(N)c(-c2ccc(Cl)c(Cl)c2)c(CCc2ccc(CNC(=O)c3ccc(S(=O)(=O)F)cc3)cc2)n1	not satisfied
COC1CC(CC2CCC(C)C(C(C)C(=O)O)O2)OC2(OC(C)(C3CCC(C)(C4OC(C5OC(O)(CO)C(C)CC5C)CC4C)O3)CC2C)C1C (configuration not stated)	satisfied
CCCCCCCC[N+](CCCC)(CCCC)CCCC (tested in a mixture with another compound)	satisfied
CN1CCN(c2ccc([N+](=O)[O-])c3no[n+]([O-])c23)CC1	satisfied

Lookup: Item c1c(N2CCOCC2)ssc1=[N+]1CCOCC1 with growth inhibition of 90% or above?
Found: not satisfied

Lookup: Item N#CC(C#N)=Cc1cc(Cl)ccc1O with growth inhibition of 90% or above?
Found: not satisfied

Lookup: Item C[As](C)SCC1OC2OC(C)(C)OC2C2OC(C)(C)OC12 (configuration not stated) with growth inhibition of 90% or above?
Found: satisfied

Lookup: Item CC[C@@]1(O)C(=O)OCc2c1cc1n(c2=O)Cc2cc3ccccc3nc2-1 with growth inhibition of 90% or above?
Found: satisfied

Lookup: Item CCN(CCCl)c1ccc(/C=C/C2=[N+](C)c3ccccc3C2(C)C)c(C)c1 with growth inhibition of 90% or above?
Found: satisfied

Lookup: Item O=C1C=CC(=O)N1c1cccc2ccccc12 (tested in a mixture with another compound) with growth inhibition of 90% or above?
Found: not satisfied

Lookup: Item Cc1ccccc1NC(=O)CBr with growth inhibition of 90% or above?
Found: satisfied

Lookup: Item C=Cc1ccccc1 (tested in a mixture with another compound) with growth inhibition of 90% or above?
Found: not satisfied

Lookup: Item OC1CCCC2CCC[N-]C12.OC1CCCC2CCC[N-]C12.[O]=[V][OH] (configuration not stated) with growth inhibition of 90% or above?
Found: satisfied

Lookup: Item CC(=O)O[C@H]1CC[C@H]2[C@@H]3CC[C@H]4CC(=O)CC[C@@H]4[C@H]3CC[C@]12C with growth inhibition of 90% or above?
Found: not satisfied

Lookup: Item [CH3][Sn]([Br])([Br])[CH2]CCCBr with growth inhibition of 90% or above?
Found: satisfied

Lookup: Item CC(C)O.CC(C)O.OCCN(CCO)CCO.OCCN(CCO)CCO.[Ti+2] with growth inhibition of 90% or above?
Found: not satisfied

Lookup: Item CC(=O)C(CN(C(C)C)C(C)C)C(c1ccccc1)c1c(O)c2ccccc2oc1=O (configuration not stated) with growth inhibition of 90% or above?
Found: not satisfied

Lookup: Item FC(F)(F)c1nnn[n-]1.[Au+].c1ccc([PH+](c2ccccc2)c2ccccc2)cc1 with growth inhibition of 90% or above?
Found: satisfied

Lookup: Item CC1=C(N2CC2)C(=O)c2ccccc2C1=O with growth inhibition of 90% or above?
Found: not satisfied

Lookup: Item O=C(Nc1ccccc1)OC(C[N+](=O)[O-])C(Cl)(Cl)Cl (configuration not stated) with growth inhibition of 90% or above?
Found: satisfied

Lookup: Item CC1(C)N([O-])[N+](=O)C1(C)Br (configuration not stated) with growth inhibition of 90% or above?
Found: not satisfied

Lookup: Item ClCCN(CCCl)CCN1c2ccccc2Sc2ccc(Cl)cc21 with growth inhibition of 90% or above?
Found: not satisfied

Lookup: Item C/C(=N\N=C(/[Se])N1CC2CCC(CC2)C1)c1ccccn1 with growth inhibition of 90% or above?
Found: not satisfied

Lookup: Item CS(=O)(=O)OCCN(CCOS(C)(=O)=O)c1ccc(C=O)cc1 with growth inhibition of 90% or above?
Found: not satisfied

Lookup: Item COC1CC2C(C[CH]1[Hg][Cl])C2(Cl)Cl (configuration not stated) with growth inhibition of 90% or above?
Found: satisfied

Lookup: Item O=C(CCl)Nc1cccc(Cl)c1 with growth inhibition of 90% or above?
Found: not satisfied

* * *

# test_description: NCI Yeast Anticancer Drug Screen. Data for the cln2 rad14 strain (AID 165);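 also: 0% = growth equal to vehicle treated cultures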
# recorded_conditions: S. cerevisiae cln2 rad14 strain, at 50.0 µM (retest, dose inferred, filed as 5.0)
About 79,000 compounds went through this panel and 15% of them were active in at least one assay; those are over-represented in the sample as a whole. Active and inactive are the calls of the source. Cut-off read from the data, not from the text of the source: active = growth inhibition above about 70%; inactive = the rest.
Pick from active, inactive when you respond.

As a guide, the following entries are already answered.
molecule	label
Cc1cccc(C)c1NC(=O)/C(CC(=O)CC(c1ccccc1)c1c(O)c2ccccc2oc1=O)=N/O (stereo not given)	inactive
C[C@]12CC[C@H]3[C@@H](C[C@@H](F)C4=CC(=O)CC[C@@]43C)[C@@H]1CC[C@@H]2O	inactive
Cc1ccc2c[c]1[Hg][CH2]COS2(=O)=O	active
CCCCCCCCC(=O)[O][Hg][c]1ccccc1	active
CC(=O)Oc1ccc(N=C2C=C(Cl)C(=O)C(Cl)=C2)cc1	inactive

Lookup: In this assay, the call recorded for COc1cc2c(c(OC)c1OC)-c1ccc(O)c(=O)cc1C(NC(C)=O)CC2 (stereo not given) was what?
Found: inactive

Lookup: In this assay, the call recorded for S=P(Nc1ccccc1)(Nc1ccccc1)Oc1ccccc1 was what?
Found: active

Lookup: In this assay, the call recorded for CC1(C)N=C(N)N=C(N)N1c1cccc(N)c1.[Sn] was what?
Found: inactive

Lookup: In this assay, the call recorded for CC1CCOC(=O)/C=C/C=C/C(=O)OC2CC3OC4C5OC5(C)C(O)CC4(COC(=O)C1O)C2(C)C31CO1 (stereo not given) was what?
Found: active

Lookup: In this assay, the call recorded for CC(C)(C)C(Br)C(=O)NC(N)=O (stereo not given) was what?
Found: inactive

* * *

# test_description: NCI Yeast Anticancer Drug Screen. Data for the rad50 strain (AID 155);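 also: 0% = growth of vehicle-only cultures of the same strain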
# recorded_conditions: S. cerevisiae rad50 strain growth inhibition; at 33.0 µM
The panel holds about 79,000 compounds, 15% with a hit somewhere; the sample as a whole holds those more often. Activity calls are given as the source filed them. No stated cut-off is given here; in the data, active means growth inhibition above about 70%; inactive means the rest.
Pick from 1 (yes) (active), 0 (no) (inactive) when you respond.

As a guide, the following entries are already answered.
molecule	label
CN(N=O)C(=O)NNC(=O)N(C)N=O	1 (yes)
CC1=C(CO)C2=C(C)C3(CC3)[C@@](C)(O)C(=O)C2=C1	0 (no)
CCCCN(CCCC)CC(C(C)=O)C(c1ccccc1)c1c(O)c2ccccc2oc1=O (stereo unspecified)	0 (no)
Cc1cccc(NC(=O)CBr)c1	1 (yes)
[N-]=[N+]=C1C(Cl)=C(Cl)C(Cl)=C1Cl	1 (yes)

From here, focus on the item given below.
Lookup: In this assay, the call recorded for CC[PH+](CC)CC.CC[PH+](CC)CC.[Au] was what?
Found: 1 (yes)

* * *

# test_description: NCI Yeast Anticancer Drug Screen. Data for the rad18 strain (AID 177)
# recorded_conditions: S. cerevisiae rad18 mutant growth inhibition; at 11.0 µM
Compounds without any hit were thinned out: in the full panel of roughly 79,000, 15% have a hit. The source made the active and inactive calls. No stated cut-off is given here; in the data, active means growth inhibition above about 70%; inactive means the rest.
Pick from true (1) for active, false (0) for inactive when you respond.

As a guide, the following entries are already answered.
molecule	label
CN(C)CCSC1=Nc2ccc(Cl)cc2C(c2ccccc2Cl)=NC1	false (0)
O=C(O)C1C2c3ccccc3C(c3ccccc32)C1C(=O)O (stereo not given)	false (0)
CCOP(=O)(CC(C)P(=O)(OCC)OCC)OCC.C[CH2][Sn]([Cl])([Cl])[CH2]C (stereo not given)	false (0)
OC1CCCC2CCC[N-]C12.OC1CCCC2CCC[N-]C12.[O]=[V][OH] (stereo not given)	true (1)
CC12CCC(C1)C(C)(C)C2OC(=O)c1ccccc1N (stereo not given)	false (0)

Lookup: In this assay, the call recorded for O=C(Nc1cc(Cl)ccc1Cl)C(Cl)(Cl)Cl was what?
Found: false (0)

Lookup: In this assay, the call recorded for COC(=O)C1=C(C(=O)OC)SC2(S1)C(C(=O)OC)=C(C(=O)OC)Sc1c2ssc1=O was what?
Found: true (1)

Lookup: In this assay, the call recorded for O=[N+]([O-])O.[NH-]C1CCCCC1[NH-].[NH-]C1CCCCC1[NH-].[NH-]C1CCCCC1[NH-].[OH-].[OH-].[OH-].[Pt+4].[Pt+4].[Pt+4] (stereo not given) was what?
Found: false (0)

Lookup: In this assay, the call recorded for COC(=O)C1C2c3ccccc3C(c3ccccc32)C1C(=O)OC (stereo not given) was what?
Found: false (0)

Lookup: In this assay, the call recorded for COc1cc(O)c2c(O)c3c(c4c2c1[C@]1(C4)C(C)=CCCC1(C)C)[C@H](O)[C@@]1(O)CC(=O)C(C(N)=O)=C(O)[C@@]1(O)C3=O was what?
Found: true (1)

Lookup: In this assay, the call recorded for [N-]=[N+]=C1C(Cl)=C(Cl)C(Cl)=C1Cl was what?
Found: false (0)

Lookup: In this assay, the call recorded for CC1CC(Br)C(=O)O1 (stereo not given) was what?
Found: false (0)

Lookup: In this assay, the call recorded for CN(N=O)C(=O)NNC(=O)N(C)N=O was what?
Found: true (1)

Lookup: In this assay, the call recorded for Cc1ccc2nc3sc(=O)sc3nc2c1 was what?
Found: true (1)

Lookup: In this assay, the call recorded for O=C1c2ccccc2C(=O)C(Cl)C1Cl (stereo not given) was what?
Found: true (1)

Lookup: In this assay, the call recorded for Nc1nc(-c2ccccc2)c(-c2ccccc2)[se]1 was what?
Found: false (0)

Lookup: In this assay, the call recorded for O=[N+]([O-])c1cc([As](Br)c2ccc(O)c([N+](=O)[O-])c2)ccc1O was what?
Found: true (1)

Lookup: In this assay, the call recorded for O=c1c2ccccc2[se]n1-c1cccnc1 was what?
Found: false (0)

Lookup: In this assay, the call recorded for CNC(=O)OCC1C2=C(C(=O)C(C)=C(N)C2=O)N2CC3C(N3C)C12OC (stereo not given) was what?
Found: false (0)
